The measured values listed here are drawn from paper PMC10485820.

Experiment: Apparent permeability in Caco-2 monolayer cell lines
Assay type: in vitro ADME
Conditions: human, Caco-2; positive controls; read-out: Papp
MEASUREMENT NAME: Papp at 2 h

[
  {
    "COMPOUND": "C[C@H]1O[C@@H](O[C@H]2[C@@H](O)C[C@H](O[C@H]3[C@@H](O)C[C@H](O[C@H]4CC[C@@]5(C)[C@H](CC[C@@H]6[C@@H]5C[C@@H](O)[C@]5(C)[C@@H](C7=CC(=O)OC7)CC[C@]65O)C4)O[C@@H]3C)O[C@@H]2C)C[C@H](O)[C@@H]1O [digoxin, reference compound]",
    "Papp at 2 h": "1.85 ×10⁻⁶ cm/s"
  }
]

Now take the following compound into account.
Query :: What measured Papp at 2 h goes with CC(C)NCC(O)COc1cccc2ccccc12 (centres unmarked) [propranolol, reference compound] ?
Result :: 33 ×10⁻⁶ cm/s
